# measurementTarget: NfsA (Escherichia coli, UniProt P17117)
# Sequence (P17117 whole entry): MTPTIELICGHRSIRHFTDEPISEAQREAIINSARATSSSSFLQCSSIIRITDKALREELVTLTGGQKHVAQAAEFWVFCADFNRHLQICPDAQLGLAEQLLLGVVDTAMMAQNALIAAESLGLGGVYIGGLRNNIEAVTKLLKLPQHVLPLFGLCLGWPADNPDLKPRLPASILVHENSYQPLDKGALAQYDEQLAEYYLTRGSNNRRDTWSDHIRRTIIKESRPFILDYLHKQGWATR
propertyMeasured: pKi
Answers are plain numbers, as −log10 of the molar value.

NfsA (Escherichia coli, UniProt P17117) / pKi / NC(=O)c1ccc[n+]([C@@H]2O[C@H](COP(=O)(O)OP(=O)(O)OC[C@H]3O[C@@H](n4cnc5c(N)ncnc54)[C@H](OP(=O)(O)O)[C@@H]3O)[C@@H](O)[C@H]2O)c1 : value?
3.60
